Notes on log10 of IC50 obtained with UniProt:P50053.
Counter-ions that a name gives are not always drawn.
Scale: log10; quantity: IC50; unit before log: nM

Return value of log10 of IC50 for input CSc1nn(-c2ccccc2)c2cc(N3CC(N4CCNCC4)C3)ccc12 [Compound 15, hydrochloride] , no commentary. 2.75

Return value of log10 of IC50 for input CCc1nn(-c2ccccc2)c2cc(N3CCN(C4CCNCC4)C3=O)ccc12 [Compound 49, hydrochloride] , no commentary. 3.26

Return value of log10 of IC50 for input CSc1nn(-c2ccccc2)c2cc(N3CCN(CC4CCCNC4)C3=O)ccc12 (centres unmarked) [Compound 28, hydrochloride] , no commentary. 3.48

Return value of log10 of IC50 for input COc1nn(-c2ccccc2)c2cc(N3CCN(C4CCNC4)CC3)ccc12 (centres unmarked) [Compound 75, hydrochloride] , no commentary. 2.49

Return value of log10 of IC50 for input CSc1nn(-c2ccccc2)c2cc(NC(=O)C3CCNC3)ccc12 (centres unmarked) [Compound 5, hydrochloride] , no commentary. 2.77

Return value of log10 of IC50 for input `CSc1nn(-c2ccccc2)c2cc(OC3CCNCC3)ccc12` , no commentary. 2.85

Return value of log10 of IC50 for input CSc1nn(-c2ccccc2)c2cc(N3CCN(C4CCNCC4)CC3)ccc12 [Compound 23, hydrochloride] , no commentary. 2.83

Return value of log10 of IC50 for input CSc1nn(-c2ccccc2)c2cc(N3CCN(CC4CCNC4)C3=O)ccc12 (centres unmarked) [Compound 27, hydrochloride] , no commentary. 3.71

Return value of log10 of IC50 for input CCc1nn(-c2ccccc2)c2cc(N3CCN(C4CCNC4)CC3)ccc12 (centres unmarked) [Compound 45, hydrochloride] , no commentary. 3.31

Return value of log10 of IC50 for input Cc1nn(-c2ccccc2)c2cc(N3CCC(N4CCNCC4)C3)ccc12 (centres unmarked) [Compound 61, hydrochloride] , no commentary. 3.00

Return value of log10 of IC50 for input `CSc1nn(-c2ccccc2)c2cc(NC(=O)C3(c4ccccc4)CCNCC3)ccc12` , no commentary. 3.33

----------
Notes on IC50 obtained with KHK (Homo sapiens (Human)).
Sequence (P50053 whole entry): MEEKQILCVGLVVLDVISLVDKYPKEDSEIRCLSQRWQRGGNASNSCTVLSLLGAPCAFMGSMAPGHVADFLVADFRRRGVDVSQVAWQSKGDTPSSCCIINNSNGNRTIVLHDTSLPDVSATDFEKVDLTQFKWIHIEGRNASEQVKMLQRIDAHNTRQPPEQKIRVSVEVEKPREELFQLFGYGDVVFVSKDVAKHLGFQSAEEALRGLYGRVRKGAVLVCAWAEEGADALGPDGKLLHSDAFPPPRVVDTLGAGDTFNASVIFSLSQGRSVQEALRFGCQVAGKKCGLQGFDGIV
Counter-ions that a name gives are not always drawn.
Provide the reading as a plain figure in µM.

Return value of IC50 for input `CSc1nn(-c2ccccc2)c2cc(NC3CCNCC3)ccc12` , no commentary. 0.77

Return value of IC50 for input CSc1nn(-c2ccccc2)c2cc(N3CCN(C4CCNC4)CC3)ccc12 (stereo not drawn) [Compound 22, hydrochloride] , no commentary. 4.45

Return value of IC50 for input `CSc1nn(-c2ccc([N+](=O)[O-])cc2)c2cc(C3=CCNCC3)ccc12` , no commentary. 0.49

Return value of IC50 for input `CSc1nn(-c2ccccc2)c2cc(N3CCN(c4ccccn4)CC3)ccc12` , no commentary. 1.56

Return value of IC50 for input CSc1nn(-c2ccccc2)c2cc(N3CCCNCC3)ccc12 [Compound 11, hydrochloride] , no commentary. 0.54

Return value of IC50 for input Cc1nn(-c2ccccc2)c2cc(N3CCNC(C)C3)ccc12 (stereo not drawn) [Compound 71, formic acid salt] , no commentary. 0.4

Return value of IC50 for input `CSc1nn(-c2ccc(N)cc2)c2cc(C3=CCNCC3)ccc12` , no commentary. 0.16

Return value of IC50 for input `CSc1nn(-c2ccccc2)c2cc(NC(=O)C3(N)CCNCC3)ccc12` , no commentary. 0.3

Return value of IC50 for input COc1nn(-c2ccccc2)c2cc(N3CCN(C4CCNCC4)C3=O)ccc12 [Compound 81, hydrochloride] , no commentary. 30

Return value of IC50 for input Cc1nn(-c2ccccc2)c2cc(N3CCN(C4CCNC4)CC3)ccc12 (stereo not drawn) [Compound 63, hydrochloride] , no commentary. 3.75

Return value of IC50 for input CSc1nn(-c2ccccc2)c2cc(N3CCNCC3)ccc12 [Compound 1, HCl salt] , no commentary. 0.56

Return value of IC50 for input CCc1nn(-c2ccccc2)c2cc(N3CCC(N4CCNCC4)C3)ccc12 (stereo not drawn) [Compound 43, hydrochloride] , no commentary. 2.35

Return value of IC50 for input CSc1nn(-c2ccccc2)c2cc(N3CCC(N4CCNCC4)C3)ccc12 (stereo not drawn) [Compound 19, hydrochloride] , no commentary. 0.56

Return value of IC50 for input Cc1nn(-c2ccccc2)c2cc(N3CCN(c4ccncc4)CC3)ccc12 [Compound 65, hydrochloride] , no commentary. 7.73

Return value of IC50 for input Cc1nn(-c2ccccc2)c2cc(N3CCN(C4CCNCC4)CC3)ccc12 [Compound 64, hydrochloride] , no commentary. 9.06

Return value of IC50 for input CSc1nn(-c2ccccc2)c2cc(N3CCN(Cc4ccncc4)CC3)ccc12 [Compound 18, Hydrochloride] , no commentary. 2.03

Return value of IC50 for input CSc1nn(-c2ccccc2)c2cc(N3CCN(C4CNC4)CC3)ccc12 [Compound 21, hydrochloride] , no commentary. 2.82

Return value of IC50 for input `CCN1CCN(c2ccc3c(C)nn(-c4ccccc4)c3c2)CC1` , no commentary. 14.2

Return value of IC50 for input CSc1nn(-c2ccccc2)c2cc(N3CCN(Cc4cccnc4)CC3)ccc12 [Compound 32, hydrochloride] , no commentary. 6.06

Return value of IC50 for input `CCc1nn(-c2ccccc2)c2nc(N3CCN(C4CNC4)CC3)ncc12` , no commentary. 23

Return value of IC50 for input CCc1nn(-c2ccccc2)c2cc(N3CCN(C4CNC4)CC3)ccc12 [Compound 44, hydrochloride] , no commentary. 2.4

Return value of IC50 for input `COc1cc(-c2ccc(N3CCNCC3)cc2)nc2c1c(C)nn2-c1ccccc1` , no commentary. 0.6

Return value of IC50 for input Cc1nn(-c2ccccc2)c2cc(N3CCN(C4CCNCC4)C3=O)ccc12 [Compound 67, hydrochloride] , no commentary. 1.23

Return value of IC50 for input Cc1nn(-c2ccccc2)c2cc(N3CCN(C4CNC4)CC3)ccc12 [Compound 62, hydrochloride] , no commentary. 1.6

Return value of IC50 for input Cc1nn(-c2ccccc2)c2nc(C3CCNCC3)nc(O)c12 [Compound 86, hydrochloride] , no commentary. 6.1

Return value of IC50 for input `CSc1nn(-c2ccccc2)c2cc(N3CCN(C(=O)c4ccccn4)CC3)ccc12` , no commentary. 16.4

Return value of IC50 for input `Cc1nn(-c2ccccc2)c2cc(N3CCNCC3)ccc12` , no commentary. 1.28

Return value of IC50 for input `Cc1nn(-c2ccccc2)c2cc(N3CCN(C)CC3)ccc12` , no commentary. 1.57

Return value of IC50 for input `CCN(CC1CCNCC1)c1ccc2c(SC)nn(-c3ccccc3)c2c1` , no commentary. 0.89

Return value of IC50 for input Cc1nn(-c2ccccc2)c2nc(C3CCN(C4CCNCC4)CC3)nc(O)c12 [Compound 89, hydrochloride] , no commentary. 14

Value source: patent US8822447B2
